Here, each record is paired with measured IC₅₀ data.
# measuredOn: β -galactosidase
# experimentNotes: β-galactosidase inhibitory activity (colorimetric, O-nitrophenyl-β-D-galactopyranose substrate)
# Assay type: biochemical, Aspergillus sp.
# conditionDetails: Test Example 2; acetate buffer pH 5.0, 37°C, 15 minutes
Where a name gives a salt, the structure may show the parent alone.

compound | unitInfo | IC₅₀
CC(=O)Nc1ccc(CN2C[C@H](O)[C@@H](O)[C@@H](O)[C@H]2CO)cc1 | ng/mL | 340
CSCCCN1C[C@H](O)[C@@H](O)[C@@H](O)[C@H]1CO | ng/mL | 49
CCCCN1C[C@H](O)[C@@H](O)[C@@H](O)[C@H]1CO | ng/mL | 154
OC[C@H]1NC[C@H](O)[C@@H](O)[C@H]1O [1-deoxygalactostatin hydrochloride, reference compound] | ng/mL | 440
COc1ccc(CN2C[C@H](O)[C@@H](O)[C@@H](O)[C@H]2CO)cc1 | ng/mL | 391
